Here, each record is paired with measured viability, T/C data.
- test.protocol: Anticancer human tumor 997537-175-T-J1-PDC patient-derived colon adenocarcinoma cell line growth inhibition [POLQ]
- setup.conditions: 997537-175-T-J1-PDC complex spheroid viability, combination with POLQ inhibitors; second compound 0.0316 µM; first compound 0.000316 µM; stronger effect = lower value
- Description: Multicellular complex tumor spheroid response to Polymerase (POL) inhibitors (novobiocin, ART-558, RP6685) in combination with a variety of drugs and investigational agents in selected tumor cell lines The POL inhibitors (novobiocin, ART-558, and RP6685) were evaluated both individually and in combination with standard of care and investigational anticancer small molecules within a complex spheroid model of solid tumors. . […]

>>> result("CC[C@@]1(O)C(=O)OCc2c1cc1n(c2=O)Cc2cc3c(CN(C)C)c(O)ccc3nc2-1 + COC1C(OC(N)=O)C(O)C(Oc2ccc3c(O)c(NC(=O)c4ccc(O)c(CC=C(C)C)c4)c(=O)oc3c2C)OC1(C)C")
"102%"
>>> result("Cn1ncnc1[C@H]1c2n[nH]c(=O)c3cc(F)cc(c23)N[C@@H]1c1ccc(F)cc1 + COC1C(OC(N)=O)C(O)C(Oc2ccc3c(O)c(NC(=O)c4ccc(O)c(CC=C(C)C)c4)c(=O)oc3c2C)OC1(C)C")
"92.9%"
>>> result("Cn1ncnc1[C@H]1c2n[nH]c(=O)c3cc(F)cc(c23)N[C@@H]1c1ccc(F)cc1 + Cc1cccc(N(C)C(=O)C2C(O)CCN2c2nc(C)cc(C(F)(F)F)c2C#N)c1")
"98%"

Ask: For the compound shown here, CC[C@@]1(O)C(=O)OCc2c1cc1n(c2=O)Cc2cc3c(CN(C)C)c(O)ccc3nc2-1 + Nc1ccc(C#CCN(C(=O)Cc2ncc(C(F)(F)F)cc2C(F)(F)F)c2ccc(F)cc2)nn1 , give the reported viability, T/C.
Reply: 104%

Ask: Suppose we examine the compound Cn1ncnc1[C@H]1c2n[nH]c(=O)c3cc(F)cc(c23)N[C@@H]1c1ccc(F)cc1 + Nc1ccc(C#CCN(C(=O)Cc2ncc(C(F)(F)F)cc2C(F)(F)F)c2ccc(F)cc2)nn1 ; what viability, T/C value has been reported?
Reply: 98.8%

Ask: Could you tell me which viability, T/C is on file for CC[C@@]1(O)C(=O)OCc2c1cc1n(c2=O)Cc2cc3c(CN(C)C)c(O)ccc3nc2-1 + Cc1cccc(N(C)C(=O)C2C(O)CCN2c2nc(C)cc(C(F)(F)F)c2C#N)c1 ?
Reply: 108%

* * *

- test.protocol: Anticancer human tumor 997537-175-T-J1-PDC cell line growth inhibition [POLQ];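 also: luminescence signal used as a surrogate for viable cells; spheroids exposed to drugs for seven days before readout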
- setup.conditions: 997537-175-T-J1-PDC complex spheroid viability, combination with POLQ inhibitors; second compound 10 µM; first compound 0.01 µM; stronger effect = lower value
Below: a set of entries, each annotated with reported viability, T/C.
State just the number; it will be interpreted in %.

A selection of reference data follows.
>>> measured_number("CCc1c2c(nc3ccc(O)cc13)-c1cc3c(c(=O)n1C2)COC(=O)[C@]3(O)CC + Nc1ccc(C#CCN(C(=O)Cc2ncc(C(F)(F)F)cc2C(F)(F)F)c2ccc(F)cc2)nn1")
65.5
>>> measured_number("Cn1ncnc1[C@H]1c2n[nH]c(=O)c3cc(F)cc(c23)N[C@@H]1c1ccc(F)cc1 + COC1C(OC(N)=O)C(O)C(Oc2ccc3c(O)c(NC(=O)c4ccc(O)c(CC=C(C)C)c4)c(=O)oc3c2C)OC1(C)C")
110
>>> measured_number("CCc1c2c(nc3ccc(O)cc13)-c1cc3c(c(=O)n1C2)COC(=O)[C@]3(O)CC + Cc1cccc(N(C)C(=O)C2C(O)CCN2c2nc(C)cc(C(F)(F)F)c2C#N)c1")
63
>>> measured_number("CC[C@@]1(O)C(=O)OCc2c1cc1n(c2=O)Cc2cc3c(CN(C)C)c(O)ccc3nc2-1 + Nc1ccc(C#CCN(C(=O)Cc2ncc(C(F)(F)F)cc2C(F)(F)F)c2ccc(F)cc2)nn1")
107

Please find the next compound below.
Ask: Entry under review: Cn1ncnc1[C@H]1c2n[nH]c(=O)c3cc(F)cc(c23)N[C@@H]1c1ccc(F)cc1 + Nc1ccc(C#CCN(C(=O)Cc2ncc(C(F)(F)F)cc2C(F)(F)F)c2ccc(F)cc2)nn1 . Reported viability, T/C?
Reply: 91.3

* * *

- test.protocol: Anticancer human tumor 997537-175-T-J1-PDC cell line growth inhibition [POLQ];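 also: luminescence signal used as a surrogate for viable cells; spheroids exposed to drugs for seven days before readout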
- setup.conditions: 997537-175-T-J1-PDC complex spheroid viability, combination with POLQ inhibitors; second compound 3.16 µM; first compound 3.16 µM; stronger effect = lower value
Label key: met means viability, T/C under 70%; not met means viability, T/C of 70% or more.

Ask: In plain terms, does O=c1[nH]cc(F)c(=O)[nH]1 + COC1C(OC(N)=O)C(O)C(Oc2ccc3c(O)c(NC(=O)c4ccc(O)c(CC=C(C)C)c4)c(=O)oc3c2C)OC1(C)C come in under 70% for viability, T/C?
Reply: not met

* * *

Reported IC50 values are given for each entry in this list.
- test.protocol: Anticancer human tumor 997537-175-T-J1-PDC cell line growth inhibition [POLQ];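 also: luminescence signal used as a surrogate for viable cells; spheroids exposed to drugs for seven days before readout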
- setup.conditions: 997537-175-T-J1-PDC complex spheroid viability, combination with POLQ inhibitors; curve of first compound; second compound 3.16 µM

>>> result("CC1COCCN1c1cc(C2(O)CC3CCC(C2)O3)c2cnn(-c3ccn[nH]3)c2n1 (stereo not drawn) + Cc1cccc(N(C)C(=O)C2C(O)CCN2c2nc(C)cc(C(F)(F)F)c2C#N)c1")
"> 10000 nM"
>>> result("C=CCn1c(=O)c2cnc(Nc3ccc(N4CCN(C)CC4)cc3)nc2n1-c1cccc(C(C)(C)O)n1 + COC1C(OC(N)=O)C(O)C(Oc2ccc3c(O)c(NC(=O)c4ccc(O)c(CC=C(C)C)c4)c(=O)oc3c2C)OC1(C)C")
"> 1000 nM"

Now consider the entry below.
Ask: Quick check: IC50 of COc1cccc(OCCCN)c1-c1cc(Nc2cnc(C#N)cn2)n[nH]1 + Nc1ccc(C#CCN(C(=O)Cc2ncc(C(F)(F)F)cc2C(F)(F)F)c2ccc(F)cc2)nn1 ?
Reply: 48.8 nM

* * *

- test.protocol: Anticancer human tumor 997537-175-T-J1-PDC cell line growth inhibition [POLQ];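 also: luminescence signal used as a surrogate for viable cells; spheroids exposed to drugs for seven days before readout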
- setup.conditions: 997537-175-T-J1-PDC complex spheroid viability, combination with POLQ inhibitors; second compound 10 µM; first compound 1 µM; stronger effect = lower value
Recorded viability, T/C by entry
Supply the numeric figure in %, leaving out any unit text.

Here's what some known entries look like.
>>> measured_number("CCCS(=O)(=O)Nc1ccc(F)c(C(=O)c2c[nH]c3ncc(-c4ccc(Cl)cc4)cc23)c1F + Cc1cccc(N(C)C(=O)C2C(O)CCN2c2nc(C)cc(C(F)(F)F)c2C#N)c1")
81.5
>>> measured_number("CCc1cc2c(N3CCc4c(cc(Cn5ccnc5)cc4-c4cn(C)nc4C(F)(F)F)C3=O)ccnc2c(OC)n1 + COC1C(OC(N)=O)C(O)C(Oc2ccc3c(O)c(NC(=O)c4ccc(O)c(CC=C(C)C)c4)c(=O)oc3c2C)OC1(C)C")
92.1
>>> measured_number("C=CCn1c(=O)c2cnc(Nc3ccc(N4CCN(C)CC4)cc3)nc2n1-c1cccc(C(C)(C)O)n1 + Nc1ccc(C#CCN(C(=O)Cc2ncc(C(F)(F)F)cc2C(F)(F)F)c2ccc(F)cc2)nn1")
72.9
>>> measured_number("CCCS(=O)(=O)Nc1ccc(F)c(C(=O)c2c[nH]c3ncc(-c4ccc(Cl)cc4)cc23)c1F + COC1C(OC(N)=O)C(O)C(Oc2ccc3c(O)c(NC(=O)c4ccc(O)c(CC=C(C)C)c4)c(=O)oc3c2C)OC1(C)C")
85.6
>>> measured_number("O=C(Nc1ccc(O)c(NS(=O)(=O)c2ccc(F)cc2)c1)c1ccc(-c2ccccc2)cc1 + Nc1ccc(C#CCN(C(=O)Cc2ncc(C(F)(F)F)cc2C(F)(F)F)c2ccc(F)cc2)nn1")
103

Ask: Could you tell me which viability, T/C is on file for CC(C)n1c(=O)n(C)c2cnc3cc(F)c(-c4ccc(OCCCN5CCCCC5)nc4)cc3c21 + Cc1cccc(N(C)C(=O)C2C(O)CCN2c2nc(C)cc(C(F)(F)F)c2C#N)c1 ?
Reply: 83.8

Ask: Please look up its viability, T/C: COc1cccc2c1C(=O)c1c(O)c3c(c(O)c1C2=O)CC(O)(C(=O)CO)CC3OC1CC(N)C(O)C(C)O1 (stereo not given) + Nc1ccc(C#CCN(C(=O)Cc2ncc(C(F)(F)F)cc2C(F)(F)F)c2ccc(F)cc2)nn1
Reply: 80

Ask: Please report the recorded viability, T/C for CNCc1ccc(-c2[nH]c3cc(F)cc4c3c2CCNC4=O)cc1 + Nc1ccc(C#CCN(C(=O)Cc2ncc(C(F)(F)F)cc2C(F)(F)F)c2ccc(F)cc2)nn1 .
Reply: 96.8

Ask: Look up viability, T/C for this molecule: C#Cc1c(F)ccc2cc(O)cc(-c3ncc4c(N5CC6CCC(C5)N6)nc(OCC56CCCN5CC(F)C6)nc4c3F)c12 (stereo not given) + Nc1ccc(C#CCN(C(=O)Cc2ncc(C(F)(F)F)cc2C(F)(F)F)c2ccc(F)cc2)nn1
Reply: 112

Ask: Tell me the measured viability, T/C of COc1cc(C2c3cc4c(cc3C(OC3OC5COC(C)OC5C(O)C3O)C3COC(=O)C23)OCO4)cc(OC)c1O (stereo not given) + Nc1ccc(C#CCN(C(=O)Cc2ncc(C(F)(F)F)cc2C(F)(F)F)c2ccc(F)cc2)nn1 , please.
Reply: 91
